Origin of values: patent US20260258115A1

Target: RSV F on RSV-A2 virus (Respiratory syncytial virus (RSV-A2))
Test: cell-based or functional assay
metric: Neutralization IC50 (RSV subtype A)

// query Tell me its Neutralization IC50 (RSV subtype A) given ADI-41341 (antibody, V domains shown) VH: QVQLVQSGAEVKKPGSSVKVSCKASGGTFSSYATHWVRQAPGQGLEWMGGIIPIFGRATYAQKFQGRVTISADESTSTAYMELSSLRSEDTAVYYCARGRDDRSGDHIAFLYHYGMDVWGQGSTVTVSS VL: QSVLTQPPSVSAAPGQKVSISCSGSSSNIGINHASWYQHLPGTAPKLLIYDNNKRPSGIPDRFSGSKSGTSATLGISGLQTGDEAAYYCGTWDTGLSAVVFGGGTKLTVL as the entry.
// result > 25 µg/mL

// query Tell me its Neutralization IC50 (RSV subtype A) given ADI-41284 (antibody, V domains shown) VH: QVQLVQSGGGLVKPGGSLRLSCAASGFTFSNAWMSWVRQAPGKGLEWVGRIKSEVDGGTADYAANVKGRLTISRDDSKNMMYLQMNSLKTEDTAVYYCTTDPGVGWIFGEVKLFRTDPEYWGQGTLVTVSS VL: QSVLTQPPSVSAAPGQKVTISCSGSSSNIGNHYVSWYQQLPGTSPKLLIYDNNKRPSGIPDRFSGSKSGTSATLGITGLQPGDEADYYCGTWDSSLSAVRVFGGGTKVTVL as the entry.
// result > 25 µg/mL

// query Tell me its Neutralization IC50 (RSV subtype A) given ADI-41249 (antibody, V domains shown) VH: QVQLVQSGAEVKKPGESLKISCQVSRDTSTTYWIGWVRQMPGKGLEWMGIIFPGDSDTRYSPSFQGQVTISADKSIMTAYLQLTSLKASDTAMYYCATQALRGAFDIWGQGTMVTVSS VL: DIRLTQSPSSLSASVGDRVTITCQASQDISNYLNWYQQKPGKAPKLLIYDASYLETGVPSRFSGSGSGTDFTFTISSLQPEDFATYYCQQYDDLLFTFGPGTKLEIK as the entry.
// result 0.01 µg/mL
